- experimentalTarget: Mitogen-activated protein kinase 14 (Homo sapiens)
- Sequence (Q16539 whole entry): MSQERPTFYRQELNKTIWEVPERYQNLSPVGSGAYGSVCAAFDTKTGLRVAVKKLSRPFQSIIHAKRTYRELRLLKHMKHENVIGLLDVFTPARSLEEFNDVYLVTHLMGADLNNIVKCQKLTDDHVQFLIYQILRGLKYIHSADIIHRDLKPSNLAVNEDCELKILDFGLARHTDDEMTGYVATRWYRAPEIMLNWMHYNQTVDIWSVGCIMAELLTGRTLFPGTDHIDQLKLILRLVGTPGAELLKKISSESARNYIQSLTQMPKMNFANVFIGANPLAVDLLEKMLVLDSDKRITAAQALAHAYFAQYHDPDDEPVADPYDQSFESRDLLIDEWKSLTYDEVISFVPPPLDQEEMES
- assayDetails: Inhibition of p38alpha phosphorylation in human TNFalpha-stimulated U937 cells treated 1 hr before by ELISA
quantity: IC50 (nM)

[I] CNc1ccc(-c2ccncc2)nc1C(N)=O
[II] NC(=O)c1nc(-c2ccns2)c2ccccn12
Min IC50? I | II // respond with label for picked entry
II
(II: 730 nM, I: 2700 nM)

====

- experimentalTarget: Dual specificity mitogen-activated protein kinase kinase 6 (Homo sapiens)
- Sequence (P52564 whole entry): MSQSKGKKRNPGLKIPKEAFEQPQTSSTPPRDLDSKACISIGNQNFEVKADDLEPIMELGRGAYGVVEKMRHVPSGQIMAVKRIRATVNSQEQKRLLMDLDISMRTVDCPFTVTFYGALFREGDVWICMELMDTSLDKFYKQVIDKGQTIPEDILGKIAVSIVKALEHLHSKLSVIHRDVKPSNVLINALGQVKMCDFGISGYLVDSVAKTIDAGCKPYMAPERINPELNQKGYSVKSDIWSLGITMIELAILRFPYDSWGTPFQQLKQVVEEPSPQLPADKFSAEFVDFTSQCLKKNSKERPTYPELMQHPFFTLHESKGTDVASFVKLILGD
- assayDetails: Inhibition of MKK6 (unknown origin) using [gamma-33P]-ATP after 20 mins by radiometric assay
quantity: pIC50
FYI, pIC50 means -log10 of a concentration in mol per litre.

Reported Dual specificity mitogen-activated protein kinase kinase 6 (Homo sapiens) pIC50 for item NC(=O)c1nnc2ccccc2c1N was 4.80

====

- experimentalTarget: Dual specificity mitogen-activated protein kinase kinase 3 (Homo sapiens)
- Sequence (P46734 whole entry): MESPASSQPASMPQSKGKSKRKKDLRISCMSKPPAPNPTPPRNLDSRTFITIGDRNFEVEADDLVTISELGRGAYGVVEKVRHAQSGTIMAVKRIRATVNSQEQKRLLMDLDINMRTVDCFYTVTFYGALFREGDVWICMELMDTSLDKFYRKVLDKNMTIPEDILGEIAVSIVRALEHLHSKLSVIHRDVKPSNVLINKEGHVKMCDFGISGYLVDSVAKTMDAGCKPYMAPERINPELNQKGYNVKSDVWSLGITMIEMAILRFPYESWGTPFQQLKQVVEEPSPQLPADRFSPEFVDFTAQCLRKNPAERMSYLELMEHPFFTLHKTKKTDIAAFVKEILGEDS
- assayDetails: Inhibition of MKK3 (unknown origin) using [gamma-33P]-ATP after 20 mins by radiometric assay
pIC50: −log10 of the molar value.
quantity: pIC50

compoundSmiles	pIC50
CNc1ccc(-c2ccncc2)nc1C(N)=O	8.40
NC(=O)c1nnc2ccccc2c1N	4.43

[I] NC(=O)c1nc(-c2ccccc2)ccc1N
[II] NC(=O)c1nc(-c2ccncc2)ccc1N
[III] NC(=O)c1nc(-c2ccns2)c2ccccn12
[IV] NC(=O)c1nc(-c2ccncc2)c2ccccn12
Hi! Can you put these in order of pIC50, lowest number first? Give your ranking as a list of the labels in the requested order.
I, IV, II, III

# credit: ChEMBL document CHEMBL3745714
